- TARGET_UNDER_TEST: Acetylcholinesterase (Electrophorus electricus, UniProt O42275)
- Sequence (O42275 whole entry): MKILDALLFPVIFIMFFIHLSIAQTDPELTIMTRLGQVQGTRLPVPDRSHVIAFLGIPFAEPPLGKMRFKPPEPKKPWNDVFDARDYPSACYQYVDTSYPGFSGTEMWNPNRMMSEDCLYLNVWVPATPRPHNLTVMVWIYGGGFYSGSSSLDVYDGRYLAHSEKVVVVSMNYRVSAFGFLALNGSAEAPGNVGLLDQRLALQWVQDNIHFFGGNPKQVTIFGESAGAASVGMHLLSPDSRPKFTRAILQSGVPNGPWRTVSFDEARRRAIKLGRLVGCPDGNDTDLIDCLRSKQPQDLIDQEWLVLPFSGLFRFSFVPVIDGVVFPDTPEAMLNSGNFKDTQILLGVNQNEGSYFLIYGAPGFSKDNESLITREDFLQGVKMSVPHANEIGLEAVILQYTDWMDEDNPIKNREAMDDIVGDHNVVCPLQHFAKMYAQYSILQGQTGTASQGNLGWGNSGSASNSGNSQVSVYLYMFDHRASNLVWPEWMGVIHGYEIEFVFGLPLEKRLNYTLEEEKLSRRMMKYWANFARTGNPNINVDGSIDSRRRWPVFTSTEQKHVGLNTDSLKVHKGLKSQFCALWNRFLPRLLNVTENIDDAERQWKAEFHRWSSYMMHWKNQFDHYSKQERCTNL
pIC50: −log10 of the molar value.
YES means recorded pIC50 is 5 or above; NO means it is below 5.

Task item: # check: pIC50 of CCCNC(=O)O[C@H]1CO[C@H]2[C@@H]1OC[C@H]2O[N+](=O)[O-] is greater than or equal to 5
Reply: NO

Task item: Then C=CC[N+](C)(C)c1ccc(CCC(=O)CCc2ccc([N+](C)(C)CC=C)cc2)cc1 ?
Reply: YES

Task item: Then O=C(NCc1ccccc1)O[C@H]1CO[C@H]2[C@@H]1OC[C@H]2OC(=O)c1ccccc1 ?
Reply: NO

Task item: Then O=C(NCc1ccccc1)O[C@H]1CO[C@H]2[C@@H]1OC[C@H]2OC(=O)c1ccc(-c2ccccc2)cc1 ?
Reply: NO

Task item: Then O=C(NCc1ccccc1)O[C@H]1CO[C@H]2[C@@H]1OC[C@H]2OC(=O)c1cccc2ccccc12 ?
Reply: NO

Task item: Then CC(C)NP(=O)(NC(C)C)OP(=O)(NC(C)C)NC(C)C [TETRAISOPROPYL PYROPHOSPHORAMIDE] ?
Reply: YES

Task item: Then O=C(/C=C/c1ccc(O)cc1)O[C@@H]1CO[C@H]2[C@@H]1OC[C@@H]2OC(=O)NCc1ccccc1 ?
Reply: NO
